Sourced from patent US20240374738A1

target.under.test: DDR1 (Homo sapiens)
Sequence (Q08345 19-913): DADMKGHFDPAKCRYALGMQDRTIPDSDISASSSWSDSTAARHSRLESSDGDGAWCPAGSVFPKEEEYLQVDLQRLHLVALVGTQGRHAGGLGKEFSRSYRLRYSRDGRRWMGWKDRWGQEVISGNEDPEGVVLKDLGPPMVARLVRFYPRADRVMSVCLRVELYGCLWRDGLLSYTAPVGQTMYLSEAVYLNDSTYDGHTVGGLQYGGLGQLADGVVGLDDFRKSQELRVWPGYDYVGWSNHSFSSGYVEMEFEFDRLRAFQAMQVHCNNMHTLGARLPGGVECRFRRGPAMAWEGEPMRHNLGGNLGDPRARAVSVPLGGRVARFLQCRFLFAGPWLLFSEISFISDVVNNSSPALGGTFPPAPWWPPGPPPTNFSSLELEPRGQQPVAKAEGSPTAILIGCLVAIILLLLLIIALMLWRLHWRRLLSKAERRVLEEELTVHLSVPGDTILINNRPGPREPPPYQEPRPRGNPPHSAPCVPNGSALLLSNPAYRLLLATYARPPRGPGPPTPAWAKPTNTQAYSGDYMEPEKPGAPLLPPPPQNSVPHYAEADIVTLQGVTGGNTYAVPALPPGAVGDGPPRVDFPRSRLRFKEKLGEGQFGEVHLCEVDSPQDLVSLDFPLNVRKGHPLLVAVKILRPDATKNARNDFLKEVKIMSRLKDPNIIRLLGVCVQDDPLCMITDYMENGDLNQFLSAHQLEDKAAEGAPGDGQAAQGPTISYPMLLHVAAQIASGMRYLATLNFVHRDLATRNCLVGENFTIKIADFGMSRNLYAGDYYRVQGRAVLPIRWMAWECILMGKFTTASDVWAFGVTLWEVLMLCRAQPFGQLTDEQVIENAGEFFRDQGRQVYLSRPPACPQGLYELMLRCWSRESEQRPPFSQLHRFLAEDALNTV
test.name: Degradation of DDR1 in tumor cell MKN45 (Western blot)
Assay type: cell-based
Design: The degradation activity of the compounds against DDR1 in the MKN45 cell line; endogenous in cells; host or cells: MKN45
measurement.conditions: MKN-45, maximum degradation percentage, MKN45 cells, 24 hours
Recorded measurements of Dmax, one per entry

A selection of reference data follows.
compound	Dmax
O=C1CCC(N2Cc3c(C#CCCN4CC5CC(C4)N5CC4CCN(c5cc6nccc(Oc7ccc(NC(=O)C8(C(=O)Nc9ccc(F)cc9)CC8)cc7)c6cc5OC(F)(F)F)CC4)cccc3C2=O)C(=O)N1 (stereo not shown)	65 to 75%
COc1cc2c(Oc3ccc(NC(=O)C4(C(=O)Nc5ccc(F)cc5)CC4)cc3)ccnc2cc1N1CCC(C(=O)N[C@H](C(=O)N2C[C@H](O)C[C@H]2C(=O)NCc2ccc(-c3scnc3C)cc2)C(C)(C)C)CC1	65 to 75%
O=C1CCC(N2Cc3cc(NC(=O)CN4C[C@@H]5C[C@H]4CN5CC4CCN(c5cc6nccc(Oc7ccc(NC(=O)C8(C(=O)Nc9ccc(F)cc9)CC8)cc7)c6cc5F)CC4)ncc3C2=O)C(=O)N1 (stereo partly shown)	75 to 85%
COc1cc2c(Oc3ccc(NC(=O)C4(C(=O)Nc5ccc(F)cc5)CC4)cc3)ccnc2cc1N1CCC(CN2CC3CC(C2)N3CCNc2cc3c(cn2)C(=O)N(C2CCC(=O)NC2=O)C3)CC1 (stereo not shown)	65 to 75%
COc1cc2c(Oc3ccc(NC(=O)C4(C(=O)Nc5ccc(F)cc5)CC4)cc3)ccnc2cc1N1CCC(CN2C3CC2CN(CCC(=O)Nc2cc4c(cn2)C(=O)N(C2CCC(=O)NC2=O)C4)C3)CC1 (stereo not shown)	65 to 75%

// lookup Dmax for COc1cc2c(Oc3ccc(NC(=O)C4(C(=O)Nc5ccc(F)cc5)CC4)cc3)ccnc2cc1N1CCC(CN2CCC(N3CCN(c4cccc5c4CN(C4CCC(=O)NC4=O)C5=O)CC3)CC2)CC1 (stereo not shown)
> 85%

// lookup Dmax for "COc1cc2c(Oc3ccc(NC(=O)C4(C(=O)Nc5ccc(F)cc5)CC4)cc3)ccnc2cc1N1CCC(C(=O)NCCCCC(=O)N[C@H](C(=O)N2C[C@H](O)C[C@H]2C(=O)NCc2ccc(-c3scnc3C)cc2)C(C)(C)C)CC1"
75 to 85%

// lookup Dmax for COc1cc2c(Oc3ccc(NC(=O)C4(C(=O)Nc5ccc(F)cc5)CC4)cc3)ccnc2cc1N1CCC(CN2C[C@H]3C[C@@H]2CN3CCCNc2cc3c(cn2)C(=O)N(C2CCC(=O)NC2=O)C3)CC1 (stereo partly shown)
75 to 85%

// lookup Dmax for "CNC(=O)c1ccc(-c2cnc3ncc(Cc4ccc5ncc(C(=O)N6CCC(CN7CCN(CC(=O)N[C@H](C(=O)N8C[C@H](O)C[C@H]8C(=O)NCc8ccc(-c9scnc9C)cc8)C(C)(C)C)CC7)CC6)cc5c4)n3n2)cc1F"
75 to 85%

// lookup Dmax for COc1cc2c(Oc3ccc(NC(=O)C4(C(=O)Nc5ccc(F)cc5)CC4)cc3)ccnc2cc1NC(=O)CN1CCN(CC2CCN(c3ccc4c(c3)C(=O)N(C3CCC(=O)NC3=O)C4=O)CC2)CC1 (stereo not shown)
75 to 85%

// lookup Dmax for C[C@@H](Oc1cc(-c2cnn(C3CCN(CCN4CCN(c5ccc6c(c5)C(=O)N(C5CCC(=O)NC5=O)C6=O)CC4)CC3)c2)cnc1N)c1c(Cl)ccc(F)c1Cl (stereo partly shown)
> 85%
